Values compiled from patent US20190008947A1.

biological target: A*11:01, P04439; settings: modification not given
RESULT_TYPE: IC50 (nM)
Numeric only. Scale: nM

Look at this binder and give its reported IC50. VTFKNAHAK […, serotype 3]
17
